- assayProtocol: Plasma protein binding (RED), mouse
- Type: in vitro ADME
- recordedConditions: pH 7.4; Table 2; mouse plasma
outcomeMeasure: fraction unbound at 4 hr
In your answer, state the number alone without any accompanying words.

**Q:** For Cc1nc2c(N)ncnc2n1[C@@H]1O[C@H](CN(C)C/C=C\CN)[C@@H](O)[C@H]1O (stereo in doubt) , what is its reported fraction unbound at 4 hr?
**A:** 0.643

---

- targetOrSystem: CYP3A4 (Homo sapiens)
- Sequence (P08684 whole entry): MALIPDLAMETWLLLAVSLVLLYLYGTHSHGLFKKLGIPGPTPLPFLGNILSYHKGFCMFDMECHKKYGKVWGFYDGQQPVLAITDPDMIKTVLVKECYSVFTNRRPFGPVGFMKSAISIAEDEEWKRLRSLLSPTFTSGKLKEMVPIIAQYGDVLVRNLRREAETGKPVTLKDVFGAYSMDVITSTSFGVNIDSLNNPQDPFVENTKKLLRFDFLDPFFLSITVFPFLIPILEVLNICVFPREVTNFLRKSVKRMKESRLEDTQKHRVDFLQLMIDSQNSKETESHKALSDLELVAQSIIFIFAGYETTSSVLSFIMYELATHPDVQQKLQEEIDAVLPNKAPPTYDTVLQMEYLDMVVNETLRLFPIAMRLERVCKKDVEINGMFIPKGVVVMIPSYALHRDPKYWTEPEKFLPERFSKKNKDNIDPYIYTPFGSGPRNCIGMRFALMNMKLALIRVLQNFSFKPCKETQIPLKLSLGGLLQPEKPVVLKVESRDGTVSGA
- assayProtocol: Cytochrome P450 inhibition, CYP3A4
- recordedConditions: read-out: CYP IC50 3A4; Example 12 chart
outcomeMeasure: IC50

**Q:** Give the measured IC50 of Cc1nc2c(N)ncnc2n1[C@@H]1O[C@H](CN(C)C/C=C\CN)[C@@H](O)[C@H]1O (stereo in doubt) .
**A:** > 5 µM

**Q:** Given the entry CN(C/C=C\CN)C[C@H]1O[C@@H](n2cnc3c(N)ncnc32)[C@@H](F)[C@@H]1O , report its measured IC50.
**A:** > 5 µM

**Q:** For the compound shown here, CN(C/C=C\CN)C[C@H]1O[C@@H](n2cnc3c(N)nc(Cl)nc32)[C@H](O)[C@@H]1O , give the reported IC50.
**A:** > 5 µM
